The measured values listed here are drawn from patent US20090175873A1.

# EXPERIMENTAL_TARGET: T1, recombinant legumain (Homo sapiens (Human), UniProt Q99538 19-323, limits assumed)
# T1 sequence: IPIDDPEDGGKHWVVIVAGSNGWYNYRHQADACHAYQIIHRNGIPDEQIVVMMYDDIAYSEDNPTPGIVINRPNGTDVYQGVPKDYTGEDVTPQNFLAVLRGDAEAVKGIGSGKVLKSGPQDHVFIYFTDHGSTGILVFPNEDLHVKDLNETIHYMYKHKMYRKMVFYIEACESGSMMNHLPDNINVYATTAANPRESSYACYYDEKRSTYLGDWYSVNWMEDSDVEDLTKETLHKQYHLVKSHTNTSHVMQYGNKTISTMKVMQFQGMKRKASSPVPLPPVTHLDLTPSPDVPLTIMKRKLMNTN
# ASSAY_NAME: cell-based or functional assay
Numbered stars: 1 amine (or outer) side, 2 acyl side, 3 side chain; on linkers, the order of the positions; unused ones are H or OH. Square brackets hold non-standard residues; d marks the D form. * marks the point of attachment. AzaAsn = aza-asparagine, NC(=O)CN(N[*:1])C(=O)[*:2]; Cbz = O=C(OCc1ccccc1)*
In this section, each of the binders is paired with its reported IC50, amidolytic activity assay of recombinant legumain with fluorescent substrate.
OBSERVATION_TYPE: IC50, amidolytic activity assay of recombinant legumain with fluorescent substrate (nM)

>>> recorded_measurement("Cbz-Ala-Ala-[AzaAsn]-{CH:CH‑CON(CH3)Bzl} [AEPI-4 (Cbz-Ala-Ala-AzaAsn-CH=CH-CON(CH3)Bzl)]")
158
>>> recorded_measurement("Cbz-Ala-Ala-[AzaAsn]-{CH:CH‑COOBzl} [AEPI-3 (Cbz-Ala-Ala-AzaAsn-CH=CH-COOBzl)]")
34
